System: Bacillus subtilis
Test: Antibacterial activity against Bacillus subtilis assessed as concentration required to obtain a zone of inhibition of 20 mm after 18 to 24 hr by disk diffusion method
Format: functional
The following compounds are shown together with reported Activity values.
measuredEndpoint: Activity (µg/mL)

compound	unitAbbreviation	assayResult
CCCCCCCC(=O)N1CCN(c2c(F)cc3c(=O)c(C(=O)O)cn(C4CC4)c3c2OC)CC1C.O (stereo unspecified)	µg/mL	13
COc1c(N2CCN(C(=O)c3ccccc3)C(C)C2)c(F)cc2c(=O)c(C(=O)O)cn(C3CC3)c12.O (stereo unspecified)	µg/mL	18
C[C@@H]1CN(c2c(F)c(N)c3c(=O)c(C(=O)O)cn(C4CC4)c3c2F)C[C@H](C)N1 [SPARFLOXACIN]	µg/mL	15
COc1c(N2CCN(C(C)=O)C(C)C2)c(F)cc2c(=O)c(C(=O)O)cn(C3CC3)c12.O (stereo unspecified)	µg/mL	17
COc1c(N2CCNC(C)C2)c(F)cc2c(=O)c(C(=O)O)cn(C3CC3)c12 (stereo unspecified) [GATIFLOXACIN]	µg/mL	17
CO/N=C1\CN(c2nc3c(cc2F)c(=O)c(C(=O)O)cn3C2CC2)CC1CN.CS(=O)(=O)O (stereo unspecified) [GEMIFLOXACIN MESYLATE]	µg/mL	8
